- tested target: human α10 nAChRs (Homo sapiens, UniProt Q9GZZ6)
- Sequence (Q9GZZ6 25-450): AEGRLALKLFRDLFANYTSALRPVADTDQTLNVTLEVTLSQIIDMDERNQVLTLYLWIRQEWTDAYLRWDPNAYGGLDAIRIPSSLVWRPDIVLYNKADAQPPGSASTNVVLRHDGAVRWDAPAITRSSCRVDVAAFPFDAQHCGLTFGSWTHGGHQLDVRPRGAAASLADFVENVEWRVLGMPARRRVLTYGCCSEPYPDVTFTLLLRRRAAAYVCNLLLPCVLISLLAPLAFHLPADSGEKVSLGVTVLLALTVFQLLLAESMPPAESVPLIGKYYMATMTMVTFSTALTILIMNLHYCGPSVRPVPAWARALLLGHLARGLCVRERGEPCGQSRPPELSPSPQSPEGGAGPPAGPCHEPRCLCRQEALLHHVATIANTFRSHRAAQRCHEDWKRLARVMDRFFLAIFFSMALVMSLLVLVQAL
- protocol details: cell-based
measured attribute: pIC50
Give bare numbers, as −log10 of the molar value.

Let me know recorded pIC50 for O=C1C[C@@H]2OCC=C3CN4CC[C@]56c7ccccc7N1[C@H]5[C@H]2[C@H]3C[C@H]46 [STR, strychnine] , thanks.
4.69
